# inhibition per entry
system: Phosphoenolpyruvate carboxykinase, cytosolic [GTP] (Homo sapiens)
method: Inhibition of human cPEPCK at 1 uM

# structure, system, inhibition (%)
records = [
    ("CCCCn1c(=O)n(Cc2ccccc2F)c(=O)c2[nH]c(Cc3ccc(NS(=O)(=O)c4ccsc4C(=O)OC)cc3)nc21", "Phosphoenolpyruvate carboxykinase, cytosolic [GTP] (Homo sapiens)", 19),
    ("CCCCn1c(=O)n(Cc2ccccc2F)c(=O)c2[nH]c(Cc3ccc(NS(=O)(=O)Cc4ccccc4)cc3)nc21", "Phosphoenolpyruvate carboxykinase, cytosolic [GTP] (Homo sapiens)", 31),
    ("CCCCn1c(=O)n(Cc2ccccc2F)c(=O)c2[nH]c(Cc3ccc(NS(=O)(=O)c4cccs4)cc3)nc21", "Phosphoenolpyruvate carboxykinase, cytosolic [GTP] (Homo sapiens)", 30),
    ("CCCCn1c(=O)n(Cc2ccccc2F)c(=O)c2[nH]c(Cc3ccc(NS(=O)(=O)c4ccccc4)cc3)nc21", "Phosphoenolpyruvate carboxykinase, cytosolic [GTP] (Homo sapiens)", 22),
]
